PROTOCOL TEXT: amyloid nucleation score (Sup35N fusion, yeast selection) (log enrichment); library NNK2; higher = more nucleation; inactive = no reads after selection;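 further: zero at mode of non-aggregating sequences after 7 days selection at 30°C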
T means recorded amyloid nucleation score is -0.2 or above; F means it is below -0.2.

1. VLAFRFYFAVVLGLMIVYG :: T
2. SRLMCNNVTSLLVFVFIGHK :: F
3. VKWACNMLSI :: F
4. LFMNRHVYVLQVVEMYKRQT :: F
5. MYYASIIEKYLYRNDLVGVG :: T
6. KDWGFRNTCG :: T
7. WHDRDTITGSITIKKMH :: F
8. PQVNPYLNLCRLTQDMLLHR :: T
9. PILGGEFDAGWRNFLFWKGW :: T
10. SLNLGRLYDLSMMLAWLGHQ :: T
11. VERFWLIWSRAYYFDFRVRE :: T
12. MVEHLCNNHSRFLYSAWGIE :: F
13. RPLCLLGRVATSKETSGRRC :: T
14. VGYIQGFERTYL :: F

---

PROTOCOL TEXT: amyloid nucleation score (Sup35N fusion, yeast selection) (log enrichment); library NNK3; higher = more nucleation; inactive = no reads after selection
VALUE TYPE: amyloid nucleation score

1. YGIAMTQTIVSCSEIESKLR :: inactive
2. LQYFTYLGQCLKRETHHFLR :: inactive
3. LFKKVDTWSYLHGDTMLRGI :: inactive
4. NVPGLSCNTSARLWRSSRLS :: inactive
5. FNSMYRVELVHCCSHNKICD :: 1.41
6. SSCKWLFTSSHPSHPEAS :: inactive
7. QCHSLYSWNDGWC :: inactive
8. PLCVWVWKLRVVFRRLYFEF :: inactive
9. YIIFLTMAHF :: 0.656
10. GHQNRTP :: inactive
11. KPQVPSN :: inactive
12. IYPFSDMLSFWGMGKCELLR :: -0.361
13. ETSITHLGILAVLGCNNGSE :: inactive
14. LICVYVWVHCLMNPYHAINR :: 0.199
15. VILMEDKSLMSWTRTIIVSM :: inactive
16. YTFRCIYRADYNTP :: inactive
17. DYDGWESCFHFS :: inactive
18. NLPRKGSGWDIHDRRHPWRS :: inactive
19. TKFIMKRLLVERVSCFLRSH :: inactive
20. SVRRLGGLLLYCNHFMFD :: inactive
21. VARPCFRERNHSPI :: inactive
22. SWTCRFCHMSFIGML :: 0.251
23. RWSTLIVTCSAGPSDFVCDG :: inactive

---

PROTOCOL TEXT: amyloid nucleation score (Sup35N fusion, yeast selection) (log enrichment); library NNK1; higher = more nucleation; inactive = no reads after selection
VALUE TYPE: amyloid nucleation score

1. VCEISLN :: 0.016
2. SHMDHGRQRWCSN :: 0.83
3. MSVVWSWMYFIKLDTFA :: -0.348
4. VNFILNF :: 5.41
5. KLHDGFL :: -0.96
6. RKSFLTLVNFYYLFRC :: 3.1
7. WSFVYMENVIARYEVSVG :: 0.296
8. LSRFRLFSYMYVLHKCNMGM :: -0.777
9. LGYIEKFWVGGHYLFLPTIY :: 0.073
10. SSLQPLIFMRSIHLIVW :: 0.265
11. VLRWYEDNPFC :: 0.291
12. GGIRRHTHGI :: -0.746
13. YIYDIGGLTHATMRCTCR :: 0.635
14. YHVRVKYFPWNGTNVTVLDS :: -0.73
15. SGDWTYFIIMRWDLPFIICR :: 0.265
16. VWSILCMCNRSHLWVKSSKR :: 0.988
17. AASTNSGR :: 0.305
18. GYRCMHLWTRSPSFIRPVVS :: 0.67
19. FVLRRLALQ :: -0.992
20. LGFSSVYWESCSL :: -0.275
21. HLECFRLRLPFTNCDVYVRS :: 0.845
22. VGRNNASLHSDKNRWFGFGF :: 1.49
23. WNRYWNLFYRGTLDSTAIGS :: -1.76
24. IYACTYY :: 0.184
25. MRTDFERHIVSYVSELCKLP :: -0.162
26. TVNSWRNLMSDLSWFSAVIL :: -0.657
27. LDEFSTSISITEWSSKL :: -0.261
28. LIKLLRVKRMYASYLFSNKV :: -1.33

---

PROTOCOL TEXT: amyloid nucleation score (Sup35N fusion, yeast selection) (log enrichment); library NNK2; higher = more nucleation; inactive = no reads after selection
VALUE TYPE: amyloid nucleation score

1. LRFASSNKLVGLD :: inactive
2. FCGFNDPGRD :: inactive
3. YCVSNWASNFSLLLYNGNMY :: inactive
4. VNFLGWSLVGKCRFQFWTVR :: inactive

---

PROTOCOL TEXT: amyloid nucleation score (Sup35N fusion, yeast selection) (log enrichment); library NNK2; higher = more nucleation; inactive = no reads after selection
Decide using amyloid nucleation score: a value greater than or equal to 0.07 is T, a smaller one is F.

1. YIVDGVGCNCHTGSIVEMSL :: F
2. QIIVLALMMWMGCRRRMERK :: T
3. HVLNWTYSTRIDAGGKSIRM :: F
4. KCVRKCYDIYGLLSCCGRLA :: T
5. SHDAYGIYRLQ :: T
6. ASFFDTVNCSWFSGIFVMGF :: T
7. LIKLMGLV :: T
8. CVLSLNTGTASWITHVWKLY :: T
9. CFQYTQTNVMRFSYGIGHRE :: T
10. SSFYTSGYPQNVSARGLGAE :: T
11. DYVSGYRVGQFVMLLGRLRN :: F
12. KKLKRRRVFVCEFTKEGIRG :: F
13. PVLCVYFSIYN :: T
14. SVKRHPFRTVKLGVSVLLWV :: T
15. MFGHHKS :: F
16. HGYRLSHSQPKSTSSLV :: F
17. ICLHHDYGSGWWIIQSAWQI :: T
18. IIQRRK :: F
19. DLEIPFLKRKG :: F
20. GSQVCILLAKGLWMVVFRIE :: F
21. RVRNMS :: T
22. STSFIL :: F
23. LRFVVMVHLE :: F
24. RTPCVHMPHAVSLGLVALLL :: F
25. ISVRVFNRNT :: T
26. RNIRWPAHISAGDKGVSGEF :: F
27. PLHRWLQDR :: F
28. QYKIVVELYMLYNISKNVEG :: T
29. TIQGLFRFSADVRTCAFMGS :: T
30. VDVFPAPSHRCGLMNLCNLV :: T
31. SDCYDDKINVVQSKAVSITL :: T
32. EEWSYVDSEPSIRFSRIQDV :: F
33. FSKSVVGSPERKHVDT :: T
34. WELVSGVYVTGCTFSSEDVQ :: F
35. CYNLCCLPFCGVNLMFWLQV :: T
36. CHWSTGRYRDVMICVLWGIS :: F
37. YSGFLRCLAYALI :: F
38. QLAYNEDMSVVGFCYIWYYG :: T
39. FFYQVWGNN :: T
40. ATVIEYKYVRGMYLLMTYTY :: F
41. YRFRSLSM :: F
42. ARLSWWGS :: F

---

PROTOCOL TEXT: amyloid nucleation score (Sup35N fusion, yeast selection) (log enrichment); library NNK3; higher = more nucleation; inactive = no reads after selection
VALUE TYPE: amyloid nucleation score

1. SMNPIECYNAHLVSSGFWVQ :: inactive
2. LQEGSN :: inactive
3. DATDCVRASMFMSFDASRH :: 1.29
4. SSSRCITLLVSIMVPISATC :: inactive
5. VRQWSTFASLMYATENGVNN :: inactive
6. TWSACPTLCLD :: -0.392
7. AIHTSPLIIPPNRFVRYRNR :: inactive
8. LIEWYFDN :: inactive
9. IWFKWNRCNVRGMTWTDFYA :: 1.17
10. CFGCVWLTITTNFPTVLFRG :: inactive
11. KEWVMRLSVGYIDSFHRFAW :: inactive
12. KIILEIAMRTSLCRPTSSYL :: 1.03
13. RYAHRSKRNTSWHVYMFKVV :: inactive
14. SNFLGNQRMLRSAQIPRMRL :: inactive
15. CSNAHFWVRILKECSLRGSG :: 0.587
16. ISLVAAKLRTCF :: inactive
17. RRRERGASNVDELWF :: inactive

---

We begin with a simple list: items and their reported amyloid nucleation score.
PROTOCOL TEXT: amyloid nucleation score (Sup35N fusion, yeast selection) (log enrichment); library NNK1; higher = more nucleation; inactive = no reads after selection
VALUE TYPE: amyloid nucleation score

1) CCLTWAPTRDPFCLVTGVCR :: 0.193
2) VVLRLRSSYFGGLAGMA :: 0.121
3) SLMDKMPTIVLELVYHAVQI :: 0.018
4) SVWCGSWVYNTLRLNMGTNL :: 3.01
5) CKFIFRKIVVGFCFDQQ :: 3.67
6) CCAISMFFELHNLHVTVMGS :: 5.54
7) KISITSTIVFS :: 1.32
8) SLFMSYLCRLVHRLLSRKIG :: -0.172
9) VIPVFRGSSFA :: -0.055
10) RAKICFVRQGRGFIMHRLLA :: 1.39
11) VAFWLLC :: 0.219
12) RRVGWLRTRSG :: 0.731
13) ISRSASVGRGLGKYESRAVR :: 0.353
